# systemUnderTest: Ima3p (Saccharomyces cerevisiae)
# Sequence (P0CW40 whole entry): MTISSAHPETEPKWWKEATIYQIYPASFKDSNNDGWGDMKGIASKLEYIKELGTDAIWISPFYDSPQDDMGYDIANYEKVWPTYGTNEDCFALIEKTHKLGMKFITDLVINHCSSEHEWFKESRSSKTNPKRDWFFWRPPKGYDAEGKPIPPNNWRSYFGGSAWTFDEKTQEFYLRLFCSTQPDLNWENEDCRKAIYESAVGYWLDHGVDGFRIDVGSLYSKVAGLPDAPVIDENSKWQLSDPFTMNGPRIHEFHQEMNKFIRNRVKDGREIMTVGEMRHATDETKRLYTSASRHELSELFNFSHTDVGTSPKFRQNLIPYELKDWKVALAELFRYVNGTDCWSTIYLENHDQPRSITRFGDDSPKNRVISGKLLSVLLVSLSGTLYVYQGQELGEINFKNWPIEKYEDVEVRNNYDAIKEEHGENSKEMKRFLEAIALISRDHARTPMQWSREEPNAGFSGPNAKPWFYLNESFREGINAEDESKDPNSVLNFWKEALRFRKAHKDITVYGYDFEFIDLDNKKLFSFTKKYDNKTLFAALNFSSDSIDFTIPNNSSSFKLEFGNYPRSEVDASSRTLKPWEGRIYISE
# assayComment: Kinetic parameters for selected substrates
# Format: biochemical
measure: Ki (mM)

{"columns": ["compound", "numericResult"],
 "data": [
  ["O=[N+]([O-])c1ccc(O[C@H]2O[C@H](CO)[C@@H](O)[C@H](O)[C@H]2O)cc1 [α-pNPG, 4-Nitrophenyl α-D-glucopyranoside]", 9.8]
]}

* * *

# systemUnderTest: Ima3pL240P (Saccharomyces cerevisiae, UniProt P0CW40, L240P)
# Sequence (P0CW40 whole entry L240P): as the sequence (P0CW40 whole entry) above, with L240P counted along it
# assayComment: Substrate specificity of purified isomaltase variant
# Format: biochemical
# condition: 100 mM substrate (pNPG 5 mM), citrate–potassium phosphate buffer, pH 7, 30 °C
In this section, each of the compounds is paired with its reported Specific activities.

{"columns": ["compound", "Specific activities [µmol/min/mg]"],
 "data": [
  ["OC[C@H]1O[C@H](OC[C@H]2O[C@H](O)[C@H](O)[C@@H](O)[C@@H]2O)[C@H](O)[C@@H](O)[C@@H]1O", 2.2],
  ["OC[C@H]1O[C@H](OC[C@H]2OC(O)(CO)[C@@H](O)[C@@H]2O)[C@H](O)[C@@H](O)[C@@H]1O (stereo partly shown)", 2.8],
  ["O=[N+]([O-])c1ccc(O[C@H]2O[C@H](CO)[C@@H](O)[C@H](O)[C@H]2O)cc1 [α-pNPG, 4-Nitrophenyl α-D-glucopyranoside]", 5.5],
  ["OC[C@H]1O[C@H](O[C@@H]2COC(O)(CO)[C@@H](O)[C@@H]2O)[C@H](O)[C@@H](O)[C@@H]1O (stereo partly shown)", 0]
]}
